# Measured On: T1, hNPR1-mFc:hBNP complex (human, UniProt P16860 103-134)
# T1 construct: also called human NPR1 complexed to BNP
# Assay Summary: SPR, mAb captured, 25C
Returns: string. Value is criterion met if measured Kd is below 1 nM, and criterion not met if it is greater than or equal to it.

Binder	Label Value
mAb25502 (antibody, human IgG4, V domains shown) VH: QLQLQESGPGLVKPSETLSLTCTVSGGSISSSSYYWGWIRQPPGKGLEWIGSIYYSGSPYYIPSLKSRVTISVDTSKNQFSLKLSSVTAADTAMYYCARQGRGIARAGPFDYWGQGTLVTVSS VL: DIQMTQSPSSLSASVGDRVTITCRASQGISNYLAWYQEKPGKVPKLLIYAASTLQSGVPSRFSGSGSGTDFTLTITSLQSEDVATYYCQKYNSAPPWTFGQGTKVEIK	criterion not met
mAb25491 (antibody, human IgG4, V domains shown) VH: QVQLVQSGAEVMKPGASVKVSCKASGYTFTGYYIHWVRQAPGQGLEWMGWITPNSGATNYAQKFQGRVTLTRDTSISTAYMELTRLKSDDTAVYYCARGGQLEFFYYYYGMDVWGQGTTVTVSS VL: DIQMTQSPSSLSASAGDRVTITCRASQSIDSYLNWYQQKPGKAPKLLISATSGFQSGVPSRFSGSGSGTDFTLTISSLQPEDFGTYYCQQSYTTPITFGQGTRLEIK	criterion met
mAb22035 (antibody, human IgG4, V domains shown) VH: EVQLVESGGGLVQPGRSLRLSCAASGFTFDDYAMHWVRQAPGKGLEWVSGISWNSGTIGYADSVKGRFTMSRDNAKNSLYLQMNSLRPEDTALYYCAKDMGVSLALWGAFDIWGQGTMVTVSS VL: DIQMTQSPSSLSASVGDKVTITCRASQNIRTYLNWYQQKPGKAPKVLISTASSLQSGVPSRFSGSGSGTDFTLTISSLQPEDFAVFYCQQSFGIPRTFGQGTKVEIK	criterion met
mAb22033 (antibody, human IgG4, V domains shown) VH: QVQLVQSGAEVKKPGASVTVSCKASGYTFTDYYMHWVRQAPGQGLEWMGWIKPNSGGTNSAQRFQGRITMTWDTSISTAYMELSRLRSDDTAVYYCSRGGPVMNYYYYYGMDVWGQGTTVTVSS VL: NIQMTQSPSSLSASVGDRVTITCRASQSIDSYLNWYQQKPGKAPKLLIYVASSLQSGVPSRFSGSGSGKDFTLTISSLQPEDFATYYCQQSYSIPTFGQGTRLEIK	criterion not met
mAb22809 (antibody, human IgG4, V domains shown) VH: QLQLRESGPGLVKPSETLSLTCTVSGGSINDNSFFWDWIRQTPGRGLEWIGNIFFDGNTYYTPSLKSRVIISVDMSQNQFSLRLTSVTAADTALYYCARHKRSMTAWGFFDYWGQGTLVTVSS VL: DIQMTQSPSSLSASVGDRVTITCRASKRINTYLNWYQQKPGKAPKVLIYSASNLQSGVPSRFSGSGSGTDFTLTINSLQPEDFATYFCQQSFSAPPITFGQGTRLEIK	criterion not met
